Below, each entry is listed with its recorded inhibition.
Molecular target: Mitogen-activated protein kinase 1 (Homo sapiens) (UniProt P28482);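 further: reported figure is an averaged percent inhibition of the kinase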
Sequence (P28482 whole entry): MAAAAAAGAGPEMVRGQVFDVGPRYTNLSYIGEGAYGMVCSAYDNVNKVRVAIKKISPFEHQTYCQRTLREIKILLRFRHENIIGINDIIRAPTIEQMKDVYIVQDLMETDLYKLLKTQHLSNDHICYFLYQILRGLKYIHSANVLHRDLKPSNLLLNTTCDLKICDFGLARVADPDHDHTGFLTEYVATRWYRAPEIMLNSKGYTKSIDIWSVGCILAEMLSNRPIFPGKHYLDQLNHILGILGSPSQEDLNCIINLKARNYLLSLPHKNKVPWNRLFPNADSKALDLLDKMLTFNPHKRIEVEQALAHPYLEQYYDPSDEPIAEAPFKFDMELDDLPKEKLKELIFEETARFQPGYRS
Details: at 0.1 µM
Please state the figure in %; there is no need to write the unit.

Here is how some compounds turned out for inhibition.
SUBSTANCE_SMILES	READOUT_UNITS	inhibition
FC(F)(F)c1cccc(Nc2nccc(-c3cnn4nc(-c5ccccc5)ccc34)n2)c1	%	4.13
COc1cc2ncn(-c3cc(OCc4cccs4)c(C(N)=O)s3)c2cc1OC	%	5.16
CN(C)c1ccc2c(c1)/C(=C/Nc1ccc(S(N)(=O)=O)cc1)C(=O)N2	%	1.12
C/C(Nc1ccc(S(N)(=O)=O)cc1)=C1/C(=O)Nc2ccccc21	%	3.1
COc1cc(Nc2ncc3c(C)nc(-c4cccc(Oc5ccccc5)c4)n3n2)cc(OC)c1OC	%	2.11

Form: item `COc1cccc(-n2cnc3c(N/N=C/c4ccncc4)ncnc32)c1` ; test system Mitogen-activated protein kinase 1 (Homo sapiens) (UniProt P28482); inhibition: -1.43
